tested on: Stellaria media; assay: Post-emergence test, weed control; format: in vivo; conditions: 0.060 kg/ha, 2–4 weeks after treatment, rating 0-100 (100=death), Table 5
Items are presented alongside their recorded STEME weed control rating.
Lab note: write the figure by itself, no unit.

Worked cases, answers included:
COMPOUND: FC(F)(F)c1ccc(-c2nccc(Oc3cccc(C(F)(F)F)c3)n2)cc1 [TTP]
STEME weed control rating: 60

COMPOUND: Cc1nc(-c2ccc(C(F)(F)F)cc2)nc(Oc2cccc(C(F)(F)F)c2)c1C [REF-2]
STEME weed control rating: 50

COMPOUND: CCc1cc(Oc2cccc(C(F)(F)F)c2)nc(-c2ccc(C(F)(F)F)cc2)n1 [REF-3]
STEME weed control rating: 85

Recorded STEME weed control rating for Cc1cnc(-c2ccc(C(F)(F)F)cc2)nc1Oc1cccc(C(F)(F)F)c1 [REF-1] , please? 90

###

Items are presented alongside their recorded SETVI weed control rating.
tested on: Setaria viridis; assay: Pre-emergence test, weed control; assay type: in vivo; settings: 0.060 kg/ha, 3 weeks after treatment, rating 0-100 (100=death), Table 3
Lab note: write the figure by itself, no unit.

Worked cases, answers included:
MOLECULE: Cc1cc(Oc2ccnc(Cl)c2)nc(-c2ccc(C(F)(F)F)cc2)n1 [REF-6]
SETVI weed control rating: 100

MOLECULE: Cc1cnc(-c2ccc(C(F)(F)F)cc2)nc1Oc1ccnc(Cl)c1 [REF-4]
SETVI weed control rating: 80

MOLECULE: COc1cnc(-c2ccc(C(F)(F)F)cc2)nc1Oc1ccnc(Cl)c1 [REF-8]
SETVI weed control rating: 90

MOLECULE: CSc1cc(Oc2ccnc(Cl)c2)nc(-c2ccc(C(F)(F)F)cc2)n1 [REF-7]
SETVI weed control rating: 85

MOLECULE: Cc1nc(-c2ccc(C(F)(F)F)cc2)nc(Oc2ccnc(Cl)c2)c1C [REF-5]
SETVI weed control rating: 50

Attention now turns to another entry.
Recorded SETVI weed control rating for FC(F)(F)c1ccc(-c2nccc(Oc3ccnc(Cl)c3)n2)cc1 [CTP] , please? 100

###

Test system: Matricaria inodora
Assay: Pre-emergence test, weed control
Format: in vivo
Settings: 0.060 kg/ha, 3 weeks after treatment, rating 0-100 (100=death), Table 1
Experimental: The pre-emergence tests involve spraying a liquid formulation of the compound onto the soil in which the seeds of the plant species mentioned above has recently been sown. The soil used in the tests is a prepared horticultural loam. […] In these tests untreated sown soil is used as control. The herbicidal effects of the test compounds are assessed visually three weeks after spraying the soil and are recorded an a 0 to 100 scale. […]
METRIC: MATIN weed control rating

Worked cases, answers included:
COMPOUND: Cc1cnc(-c2ccc(C(F)(F)F)cc2)nc1Oc1cccc(C(F)(F)F)c1 [REF-1]
MATIN weed control rating: 100

COMPOUND: Cc1nc(-c2ccc(C(F)(F)F)cc2)nc(Oc2cccc(C(F)(F)F)c2)c1C [REF-2]
MATIN weed control rating: 98

Recorded MATIN weed control rating for FC(F)(F)c1ccc(-c2nccc(Oc3cccc(C(F)(F)F)c3)n2)cc1 [TTP] , please? 100
